Parameter: pEC50. Scope: all listed entries.
# System: Plasmodium falciparum
# Assay notes: Parasiticidal activity against Plasmodium falciparum 3D7
# Type: functional, organism-based
pEC50: −log10 of the molar value.
Measured parameter: pEC50

O=C(NO)C1CN(S(=O)(=O)c2ccc(-c3ccccc3)cc2)CCN1S(=O)(=O)c1cccc(-c2ccccc2)c1 (centres undefined) :: 5.15
O=C(NO)C1CN(C(=O)c2cccc3ccccc23)CCN1S(=O)(=O)c1ccc(Br)cc1 (centres undefined) :: 5.40
O=C(NO)C1CN(S(=O)(=O)c2ccc(-c3ccccc3)cc2)CCN1S(=O)(=O)c1ccc(-c2ccccc2)cc1 (centres undefined) :: 5.15

---

# Assay system: Falcilysin (Plasmodium falciparum (isolate 3D7))
# Sequence (Q76NL8 whole entry): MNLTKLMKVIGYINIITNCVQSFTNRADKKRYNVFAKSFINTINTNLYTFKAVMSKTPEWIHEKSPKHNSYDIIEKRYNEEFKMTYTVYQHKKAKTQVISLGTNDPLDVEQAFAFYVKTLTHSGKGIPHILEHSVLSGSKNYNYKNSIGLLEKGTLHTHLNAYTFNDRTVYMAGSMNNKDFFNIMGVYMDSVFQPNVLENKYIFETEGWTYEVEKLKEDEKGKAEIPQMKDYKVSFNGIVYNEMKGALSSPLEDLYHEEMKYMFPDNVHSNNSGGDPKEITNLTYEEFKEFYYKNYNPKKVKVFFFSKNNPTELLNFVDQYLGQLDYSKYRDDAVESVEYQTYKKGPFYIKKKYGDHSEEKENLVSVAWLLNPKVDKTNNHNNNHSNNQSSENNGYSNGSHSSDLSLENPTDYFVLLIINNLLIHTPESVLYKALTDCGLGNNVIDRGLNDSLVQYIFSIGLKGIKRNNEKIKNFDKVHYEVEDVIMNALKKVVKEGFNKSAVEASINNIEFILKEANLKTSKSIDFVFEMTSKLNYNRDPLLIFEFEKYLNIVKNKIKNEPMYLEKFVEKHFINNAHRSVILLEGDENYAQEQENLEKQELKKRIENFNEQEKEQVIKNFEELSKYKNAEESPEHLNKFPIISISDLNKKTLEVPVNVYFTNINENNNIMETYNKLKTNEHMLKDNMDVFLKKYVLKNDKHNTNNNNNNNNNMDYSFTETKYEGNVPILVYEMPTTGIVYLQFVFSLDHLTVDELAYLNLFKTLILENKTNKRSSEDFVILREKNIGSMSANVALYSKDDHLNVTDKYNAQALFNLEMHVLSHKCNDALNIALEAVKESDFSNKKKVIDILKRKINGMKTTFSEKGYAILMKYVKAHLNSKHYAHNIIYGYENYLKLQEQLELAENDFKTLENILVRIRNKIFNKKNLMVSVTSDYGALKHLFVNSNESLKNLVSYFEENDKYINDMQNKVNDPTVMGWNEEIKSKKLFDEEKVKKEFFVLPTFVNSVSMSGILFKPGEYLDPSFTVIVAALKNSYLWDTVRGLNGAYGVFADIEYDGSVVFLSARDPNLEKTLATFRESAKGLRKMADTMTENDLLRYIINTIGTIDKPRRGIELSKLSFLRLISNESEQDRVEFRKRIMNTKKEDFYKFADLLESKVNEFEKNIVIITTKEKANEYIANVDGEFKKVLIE
# Assay notes: Inhibition of Plasmodium falciparum FLN
Each record is given 1.0 if its reported Ki is strictly below 1000 nM. Records at or above 1000 nM are given 0.0.

CNC(=O)C1CN(S(=O)(=O)c2ccc(-c3ccccc3)cc2)CCN1S(=O)(=O)c1cccc(CCc2ccccc2)c1 (stereo not drawn) :: 0.0
CNC(=O)C1CN(S(=O)(=O)c2cccc(Br)c2)CCN1S(=O)(=O)c1ccc(-c2ccccc2)cc1 (stereo not drawn) :: 0.0
C#Cc1ccc(S(=O)(=O)N2CCN(C(=O)c3ccc(I)cc3)CC2C(=O)NO)cc1 (stereo not drawn) :: 0.0
COC(=O)C1CN(Cc2ccc(-c3ccccc3)cc2)CCN1S(=O)(=O)c1ccc(Br)cc1 (stereo not drawn) :: 0.0
O=C(NO)C1CN(S(=O)(=O)c2ccc(-c3ccccc3)cc2)CCN1S(=O)(=O)c1cccc(Br)c1 (stereo not drawn) :: 0.0
CNC(=O)C1CN(S(=O)(=O)c2ccc(-c3ccccc3)cc2)CCN1S(=O)(=O)c1cccc(-c2cccnc2OC)c1 (stereo not drawn) :: 0.0
O=C(NO)C1CN(S(=O)(=O)c2ccc(-c3ccccc3)cc2)CCN1S(=O)(=O)c1cccc(-c2ccccc2)c1 (stereo not drawn) :: 1.0
COC(=O)C1CN(S(=O)(=O)c2ccc(-c3ccccc3)cc2)CCN1S(=O)(=O)c1ccc(/C=C/c2ccccc2)cc1 (stereo not drawn) :: 1.0

---

Parameter: log10 EC50. Scope: all listed entries.
# Test system: Plasmodium falciparum
# Assay notes: Parasiticidal activity against Plasmodium falciparum 3D7
# Format: functional, organism-based
Measured parameter: log10 EC50 (log10 of the value in nM)

O=C(NO)C1CN(C(=O)c2ccc(-c3ccccc3)cc2)CCN1S(=O)(=O)c1ccc(I)cc1 (configuration not stated) :: 3.48
CNC(=O)C1CN(S(=O)(=O)c2ccc(I)cc2)CCN1S(=O)(=O)c1ccc(-c2ccccc2)cc1 (configuration not stated) :: 3.95
CNC(=O)C1CN(S(=O)(=O)c2ccc(-c3ccccc3)cc2)CCN1S(=O)(=O)c1cccc(CCc2ccccc2)c1 (configuration not stated) :: 3.32
COC(=O)C1CN(S(=O)(=O)c2ccc(-c3ccccc3)cc2)CCN1S(=O)(=O)c1ccc(-c2ccccc2)cc1 (configuration not stated) :: 3.32
O=C(NO)C1CN(S(=O)(=O)c2ccc(/C=C/c3ccccc3)cc2)CCN1S(=O)(=O)c1ccc(-c2ccccc2)cc1 (configuration not stated) :: 4.20
O=C(NO)C1CN(Cc2ccc(-c3ccccc3)cc2)CCN1S(=O)(=O)c1ccc(I)cc1 (configuration not stated) :: 3.70
CNC(=O)C1CN(S(=O)(=O)c2ccc(-c3ccccc3)cc2)CCN1S(=O)(=O)c1cccc(/C=C/c2ccccc2)c1 (configuration not stated) :: 3.70
C#Cc1ccc(S(=O)(=O)N2CCN(C(=O)c3ccc(C(=O)c4ccccc4)cc3)CC2C(=O)NO)cc1 (configuration not stated) :: 3.78
COC(=O)C1CN(S(=O)(=O)c2ccc(-c3ccccc3)cc2)CCN1S(=O)(=O)c1ccc(/C=C/c2ccccc2)cc1 (configuration not stated) :: 2.90
O=C(NO)C1CN(C(=O)c2ccc(-c3ccccc3)cc2)CCN1S(=O)(=O)c1ccc(Br)cc1 (configuration not stated) :: 3.41
O=C(NO)C1CN(S(=O)(=O)c2ccc(-c3ccccc3)cc2)CCN1S(=O)(=O)c1cccc(Br)c1 (configuration not stated) :: 3.20
COC(=O)C1CN(Cc2ccc(-c3ccccc3)cc2)CCN1S(=O)(=O)c1ccc(Br)cc1 (configuration not stated) :: 3.15
CNC(=O)C1CN(S(=O)(=O)c2ccc(-c3cccnc3OC)cc2)CCN1S(=O)(=O)c1ccc(-c2ccccc2)cc1 (configuration not stated) :: 3.15
